For each record, write down the corresponding Ki.
Target: 5-HT2A (Homo sapiens (Human))
Sequence (P28223 whole entry): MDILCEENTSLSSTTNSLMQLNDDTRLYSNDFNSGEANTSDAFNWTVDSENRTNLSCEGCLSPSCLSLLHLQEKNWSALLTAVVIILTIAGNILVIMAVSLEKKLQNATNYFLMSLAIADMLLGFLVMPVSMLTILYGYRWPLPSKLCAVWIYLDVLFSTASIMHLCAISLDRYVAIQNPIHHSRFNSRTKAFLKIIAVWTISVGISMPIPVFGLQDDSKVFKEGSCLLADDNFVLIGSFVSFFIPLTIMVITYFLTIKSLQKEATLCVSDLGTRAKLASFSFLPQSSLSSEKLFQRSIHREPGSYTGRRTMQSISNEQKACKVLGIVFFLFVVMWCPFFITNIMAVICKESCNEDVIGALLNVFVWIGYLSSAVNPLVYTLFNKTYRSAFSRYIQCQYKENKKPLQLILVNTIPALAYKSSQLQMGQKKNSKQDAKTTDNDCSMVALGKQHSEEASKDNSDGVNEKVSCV
Test: Radioligand binding assay, [^3H]5-HT competition, 5-HT2A
Settings: [^3H]5-HT radioligand, membranes of HEK293 cells expressing recombinant 5-HT2A; Ki from IC50 by Cheng-Prusoff; read-out: 5-HT2A serotonin binding Ki value
Report only the number, with the unit nM understood.

Could you tell me which Ki is on file for Cc1cnoc1C(=O)Nc1ccc(OCCN2CCCC2)c(-c2c(C)ncnc2C)c1 [Compound 216] ?
16.6

Form field: reported Ki of Cc1ncnc(C)c1-c1cc(NC(=O)Cc2nccs2)ccc1OCCN1CCC1 [Compound 329]
11.5

// Ki lookup, key: Cc1ncnc(C)c1-c1cc(NC(=O)C2CC2)ccc1OCCN1[C@@H]2COC[C@H]1C2 [Compound 337]
7.29
